Target: T1, mouse tissue factor pathway inhibitor (TFPI) (mouse, UniProt O54819 29-289, limits assumed)
T1 construct: Bought protein; also called mouse TFPI; mTFPI
T1 sequence (looked up): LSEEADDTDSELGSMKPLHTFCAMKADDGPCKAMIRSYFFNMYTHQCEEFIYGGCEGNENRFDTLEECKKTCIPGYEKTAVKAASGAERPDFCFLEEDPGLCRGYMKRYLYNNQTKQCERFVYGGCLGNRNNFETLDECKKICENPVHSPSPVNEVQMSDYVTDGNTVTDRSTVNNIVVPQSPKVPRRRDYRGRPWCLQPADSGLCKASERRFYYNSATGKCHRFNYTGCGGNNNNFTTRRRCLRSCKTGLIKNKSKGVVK
Experiment: ELISA, Fab on coated mouse TFPI
property: binding result

binder	property	readout_value
TP-4G8 Fab (Fab, V domains shown, Human Fab from HuCal Gold, expressed in E. coli TG1) VH: QVQLVESGGGLVQPGGSLRLSCAASGFTFSTYAMHWVRQAPGKGLEWVSTISGYGSFTYYADSVKGRFTISRDNSKNTLYLQMNSLRAEDTAVYYCARNGRKYGQMDNWGQGTLVTVSS VL: DIELTQPPSVSVAPGQTARISCSGDKLGSKSVHWYQQKPGQAPVLVIYRDTDRPSGIPERFSGSNSGNTATLTISGTQAEDEADYYCQTYDYILNVFGGGTKLTVLG	binding result	no binding
TP-4H8 Fab (Fab, V domains shown, Human Fab from HuCal Gold, expressed in E. coli TG1) VH: QVQLVESGGGLVQPGGSLRLSCAASGFTFSDHAMHWVRQAPGKGLEWVSVIEYSGSKTNYADSVKGRFTISRDNSKNTLYLQMNSLRAEDTAVYYCARGDYYPYLVFAIWGQGTLVTVSS VL: DIELTQPPSVSVAPGQTARISCSGDSIGKKYVHWYQQKPGQAPVLVIYGDNNRPSGIPERFSGSNSGNTATLTISGTQAEDEADYYCSTADSVITYKNVFGGGTKLTVLG	binding result	no binding
TP-4E8 Fab (Fab, V domains shown, Human Fab from HuCal Gold, expressed in E. coli TG1) VH: QVQLVESGGGLVQPGGSLRLSCAASGFTFNDYAMSWVRQAPGKGLEWVSLIESVSSSTYYADSVKGRFTISRDNSKNTLYLQMNSLRAEDTAVYYCARTIGVLWDDVWGQGTLVTVSS VL: DIELTQPPSVSVAPGQTARISCSGDALGSKYVSWYQQKPGQAPVLVIYGDNKRPSGIPERFSGSNSGNTATLTISGTQAEDEADYYCQSYTYSLNQVFGGGTKLTVLG	binding result	no binding
TP-2C1 Fab (Fab, V domains shown, Human Fab from HuCal Gold, expressed in E. coli TG1) VH: QVQLVESGGGLVQPGGSLRLSCAASGFTFSPYVMSWVRQAPGKGLEWVSSISSSSSNTYYADSVKGRFTISRDNSKNTLYLQMNSLRAEDTAVYYCARGDSYMYDVWGQGTLVTVSS VL: DIELTQPPSVSVAPGQTARISCSGDSIGSYYAHWYQQKPGQAPVLVIYYDSKRPSGIPERFSGSNSGNTATLTISGTQAEDEADYYCQAYTGQSISRVFGGGTKLTVLG	binding result	no binding

Summary for this binder, TP-2G7 Fab (Fab, V domains shown, Human Fab from HuCal Gold, expressed in E. coli TG1) VH: QVQLVESGGGLVQPGGSLRLSCAASGFTFNSYAMSWVRQAPGKGLEWVSNISSNSSNTYYADSVKGRFTISRDNSKNTLYLQMNSLRAEDTAVYYCARKGGGEHGFFPSDIWGQGTLVTVSS VL: DIELTQPPSVSVAPGQTARISCSGDNLGTYYVHWYQQKPGQAPVLVIYGDNNRPSGIPERFSGSNSGNTATLTISGTQAEDEADYYCQTYDSNNESIVFGGGTKLTVLG : binding result is no binding
